Taken from patent US11911393B2.

# system-name: ERK2 (Homo sapiens, UniProt P28482)
# Sequence (P28482 whole entry, species assumed): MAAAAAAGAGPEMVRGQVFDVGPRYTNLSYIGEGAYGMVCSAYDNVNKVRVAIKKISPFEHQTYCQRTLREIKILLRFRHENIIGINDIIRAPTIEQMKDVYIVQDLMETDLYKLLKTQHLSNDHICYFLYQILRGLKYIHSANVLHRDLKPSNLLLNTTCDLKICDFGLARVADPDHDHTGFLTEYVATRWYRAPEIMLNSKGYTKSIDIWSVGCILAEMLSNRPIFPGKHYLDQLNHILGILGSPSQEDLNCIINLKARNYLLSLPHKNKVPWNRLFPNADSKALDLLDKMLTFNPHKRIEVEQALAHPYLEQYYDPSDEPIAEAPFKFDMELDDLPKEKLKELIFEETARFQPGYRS
# protocol-summary: DSF, binding to ERK2
# condition-set: DSF, test compounds at 10-100 μM
value-kind: stabilization of ERK2 in DSF (binding), in words

O=C(Nc1ccc(CN2CCS(=O)(=O)CC2)cc1)c1ccc(Cl)cc1 [UM101] | not ERK2
CN1CCN(c2ccc(CNS(=O)(=O)c3ccc(-c4ccon4)s3)cc2)CC1 [compound 5] | also stabilized ERK2
O=C1NCCN1CCNS(=O)(=O)c1ccc(S(=O)(=O)c2ccccc2)s1 [compound 3] | also stabilized ERK2
O=C1c2cc(S(=O)(=O)NCCO)ccc2-c2ccc(S(=O)(=O)NCCO)cc21 [UM60] | not ERK2

----------
# system-name: ERK2 (Homo sapiens, UniProt P28482)
# protocol-summary: DSF, binding to ERK2
# condition-set: 100 μM; change in melting temperature relative to DMSO control in DSF assay
Grouping by measured ERK2 ΔTm (° C.) @100 μM is done with the following cut points: LOW = under 0.3 °C, MEDIUM = from 0.3 °C up to 0.4 °C, HIGH = 0.4 °C and over

Check out these entries, answers already filled in.
O=C1NCCN1CCNS(=O)(=O)c1ccc(S(=O)(=O)c2ccccc2)s1 | MEDIUM
CN1CCN(c2ccc(CNS(=O)(=O)c3ccc(-c4ccon4)s3)cc2)CC1 | HIGH

q: Any idea which band CN1CCN(CC(=O)Nc2ccc(S(N)(=O)=O)cc2)CC1 is in?
a: HIGH

q: Any idea which band Cc1nc(S(=O)(=O)NCc2cc(F)cc3c2OCOC3)cn1C is in?
a: LOW

q: Any idea which band O=S(=O)(c1ccccc1)N(Cc1ccccn1)Cc1ccccn1 is in?
a: HIGH

q: Any idea which band Cc1nc(-c2ccc(S(=O)(=O)NCCCN)s2)cs1 is in?
a: HIGH

q: Any idea which band O=C(CSc1cccs1)NCCSCc1ccco1 is in?
a: LOW

q: Any idea which band O=S(=O)(CCS(=O)(=O)c1ccccn1)c1ccc(Cl)cc1 is in?
a: MEDIUM

q: Any idea which band O=S(=O)(NCc1csc(-c2cccs2)n1)c1ccc2c(c1)CCO2 is in?
a: LOW

----------
p38α ΔTm (° C.) @100 μM listing for selected compounds.
# system-name: unphosphorylated recombinant human p38α (Homo sapiens)
# Construct: made in house; host or cells: E. coli BL21
# Sequence (Q16539 whole entry): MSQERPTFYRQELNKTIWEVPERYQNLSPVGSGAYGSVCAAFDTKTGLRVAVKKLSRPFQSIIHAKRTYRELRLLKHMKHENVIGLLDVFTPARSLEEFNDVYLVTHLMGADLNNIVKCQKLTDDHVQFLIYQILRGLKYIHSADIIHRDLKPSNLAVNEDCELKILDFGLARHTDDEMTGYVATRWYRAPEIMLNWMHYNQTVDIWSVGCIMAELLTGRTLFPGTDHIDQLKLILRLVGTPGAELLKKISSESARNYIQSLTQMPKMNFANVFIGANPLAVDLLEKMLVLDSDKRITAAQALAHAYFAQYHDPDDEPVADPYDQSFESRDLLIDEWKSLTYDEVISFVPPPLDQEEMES
# protocol-summary: Differential scanning fluorimetry (DSF), binding to p38α
# condition-set: 100 μM; change in melting temperature relative to DMSO control in DSF assay
Provide only the numeric value, understood in °C.

Reference set (5 entries):
O=S(=O)(c1ccccc1)N(Cc1ccccn1)Cc1ccccn1 | −0.052
O=S(=O)(NCc1csc(-c2cccs2)n1)c1ccc2c(c1)CCO2 | −0.488
CN1CCN(CC(=O)Nc2ccc(S(N)(=O)=O)cc2)CC1 | 0.065
CS(=O)(=O)N1CCN(c2ncccc2C(F)(F)F)CC1 | 0.005
O=S(=O)(CCS(=O)(=O)c1ccccn1)c1ccc(Cl)cc1 | −0.233

q: Item under review: Cc1nc(-c2ccc(S(=O)(=O)NCCCN)s2)cs1 . Reported p38α ΔTm (° C.) @100 μM?
a: −0.07

q: Item under review: CN1CCN(c2ccc(CNS(=O)(=O)c3ccc(-c4ccon4)s3)cc2)CC1 . Reported p38α ΔTm (° C.) @100 μM?
a: 0.808

q: Item under review: O=C1NCCN1CCNS(=O)(=O)c1ccc(S(=O)(=O)c2ccccc2)s1 . Reported p38α ΔTm (° C.) @100 μM?
a: 0.282

q: Item under review: Cc1nc(S(=O)(=O)NCc2cc(F)cc3c2OCOC3)cn1C . Reported p38α ΔTm (° C.) @100 μM?
a: −0.171

q: Item under review: O=C(CSc1cccs1)NCCSCc1ccco1 . Reported p38α ΔTm (° C.) @100 μM?
a: −1.084

q: Item under review: COc1ccccc1N1CCN(CCCCNS(=O)(=O)c2ccc(C)cc2)CC1 . Reported p38α ΔTm (° C.) @100 μM?
a: −0.05
